Form field: pIC50 (one value per entry).
system: HT-29; experiment: cytotoxicity against HT-29; type: cell-based; conditions: Homo sapiens
pIC50: −log10 of the molar value.
PROPERTY MEASURED: pIC50

1) Nc1nccc(-c2c3cccnc3n3c(N)nccc23)n1 [Compound 5]    7.40
2) CSc1nccc(-c2c3cccnc3n3c(N)nccc23)n1 [Compound 21]    6.80
3) Nc1nccc(-c2c3c(O)ccnc3n3c(N)nccc23)n1 [variolin B]    7.05
4) CSc1nccc(-c2c3cccnc3n3c(NC(C)=O)nccc23)n1 [Compound 20a]    6.54
